Test: Plasma pharmacokinetics after single IV, IP or PO dose
Type: in vivo, male CD-1 mice
Details: male, CD-1, mouse, in vivo, po, 10 mg/kg, PO 10 mg/kg, male CD-1 mice; read-out: F (%) absolute bioavailability
value.kind: bioavailability

C[C@]12CC[C@H](n3ccnc3)CC1=CCC1C2CC[C@]2(C)C(n3cnc4ccccc43)=CCC12 (stereo partly shown)    ~50%

###

Assay: Plasma pharmacokinetics after single IV, IP or PO dose
Assay type: in vivo, male CD-1 mice
Settings: male, CD-1, mouse, in vivo, iv, 1 mg/kg, IV 1 mg/kg, male CD-1 mice
value.kind: half-life

C[C@]12CC[C@H](n3ccnc3)CC1=CCC1C2CC[C@]2(C)C(n3cnc4ccccc43)=CCC12 (stereo partly drawn) [VNPP433-3β]    14.3 h

###

Target: fAR (Homo sapiens)
Sequence (P10275 whole entry): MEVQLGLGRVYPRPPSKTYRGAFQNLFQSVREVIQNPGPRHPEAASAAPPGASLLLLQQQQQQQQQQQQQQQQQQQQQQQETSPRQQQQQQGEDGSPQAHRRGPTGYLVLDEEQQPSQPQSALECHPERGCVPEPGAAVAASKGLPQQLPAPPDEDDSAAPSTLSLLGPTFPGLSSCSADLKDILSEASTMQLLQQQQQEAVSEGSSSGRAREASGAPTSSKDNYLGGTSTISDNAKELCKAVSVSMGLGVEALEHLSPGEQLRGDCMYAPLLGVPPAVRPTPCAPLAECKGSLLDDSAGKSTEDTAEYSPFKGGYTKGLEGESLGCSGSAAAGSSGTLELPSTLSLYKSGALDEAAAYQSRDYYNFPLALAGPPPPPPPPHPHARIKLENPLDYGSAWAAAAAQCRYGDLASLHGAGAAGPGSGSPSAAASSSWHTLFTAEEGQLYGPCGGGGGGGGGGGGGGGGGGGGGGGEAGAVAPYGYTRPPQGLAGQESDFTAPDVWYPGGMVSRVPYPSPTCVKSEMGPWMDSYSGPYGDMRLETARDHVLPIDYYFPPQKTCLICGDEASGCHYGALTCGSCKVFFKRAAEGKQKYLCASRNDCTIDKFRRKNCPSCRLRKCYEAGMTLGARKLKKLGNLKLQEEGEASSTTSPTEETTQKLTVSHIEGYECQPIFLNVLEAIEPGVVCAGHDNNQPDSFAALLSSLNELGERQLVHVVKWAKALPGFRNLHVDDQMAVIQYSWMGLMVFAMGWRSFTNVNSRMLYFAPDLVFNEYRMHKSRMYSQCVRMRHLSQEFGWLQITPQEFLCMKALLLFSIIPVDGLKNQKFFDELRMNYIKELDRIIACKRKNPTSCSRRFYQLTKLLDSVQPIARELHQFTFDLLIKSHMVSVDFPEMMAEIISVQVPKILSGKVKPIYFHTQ
Experiment: Protein level decrease by western blot, dose-response in CWR22Rv1 cells
Type: cell-based
Conditions: read-out: fAR EC50, 0–7.5 µM, 72 h
value.kind: EC50 (µM)

C[C@]12CC[C@H](OCc3ccncc3)CC1=CCC1C2CC[C@]2(C)C(n3cnc4ccccc43)=CCC12 (stereo partly shown)    0.84

###

Assay: Plasma pharmacokinetics after single IV, IP or PO dose
Assay type: in vivo, male CD-1 mice
Details: mouse, in vivo; IP 10 mg/kg, male CD-1 mice, plasma
value.kind: Cmax (ng/mL)

C[C@]12CC[C@H](n3ccnc3)CC1=CCC1C2CC[C@]2(C)C(n3cnc4ccccc43)=CCC12 (stereo partly drawn) [VNPP433-3β]    2290

###

Molecular target: fAR (Homo sapiens)
Experiment: Protein level decrease by western blot, dose-response in CWR22Rv1 cells
Assay type: cell-based
Conditions: 0–7.5 µM, 72 h, read-out: fAR EC50
value.kind: EC50 (nM)

C[C@]12CC[C@H](n3ccnc3)CC1=CCC1C2CC[C@]2(C)C(n3cnc4ccccc43)=CCC12 (stereo partly shown)    580

###

Test: Plasma pharmacokinetics after single IV, IP or PO dose
Type: in vivo, male CD-1 mice
Conditions: mouse; PO 10 mg/kg, male CD-1 mice, plasma
Method: These studies were conducted in male CD-1 mice (7–8 weeks old, weighing about 27–33 g) were obtained from Hylasco Bio-Technology Pvt. Ltd. (A Charles River Technology Licensee, Turkapally, India). […] Male CD-1 mice (7-8 weeks old, weighing about 27-33 g) were obtained from Hylasco Bio-Technology Pvt. […] Plasma pharmacokinetic parameters were calculated using the non-compartmental analysis tool of Phoenix software (Version 7, Pharsight) and were determined from individual animals in each group. […]
Entries and their AUC(0-inf) values follow.
value.kind: AUC(0-inf) (ng·h/mL)

C[C@]12CC[C@H](OCc3ccncc3)CC1=CCC1C2CC[C@]2(C)C(n3cnc4ccccc43)=CCC12 (some centres unmarked)    1030
C[C@]12CC[C@H](O)CC1=CC[C@@H]1[C@@H]2CC[C@]2(C)C(n3cnc4ccccc43)=CC[C@@H]12    969

###

Assay: Plasma pharmacokinetics after single IV, IP or PO dose
Format: in vivo, male CD-1 mice
Settings: mouse, plasma; PO 10 mg/kg, male CD-1 mice; read-out: F (%) absolute bioavailability
Entries and their bioavailability values follow.
value.kind: bioavailability

C[C@]12CC[C@H](O)CC1=CC[C@@H]1[C@@H]2CC[C@]2(C)C(n3cnc4ccccc43)=CC[C@@H]12 [Galeterone]    18.4%
C[C@]12CC[C@H](OCc3ccncc3)CC1=CCC1C2CC[C@]2(C)C(n3cnc4ccccc43)=CCC12 (some centres unmarked) [VNPP414]    19.4%
